- study.target: human TRPM2 (Homo sapiens)
- Construct: whole-cell patch clamp
- Sequence (O94759 whole entry): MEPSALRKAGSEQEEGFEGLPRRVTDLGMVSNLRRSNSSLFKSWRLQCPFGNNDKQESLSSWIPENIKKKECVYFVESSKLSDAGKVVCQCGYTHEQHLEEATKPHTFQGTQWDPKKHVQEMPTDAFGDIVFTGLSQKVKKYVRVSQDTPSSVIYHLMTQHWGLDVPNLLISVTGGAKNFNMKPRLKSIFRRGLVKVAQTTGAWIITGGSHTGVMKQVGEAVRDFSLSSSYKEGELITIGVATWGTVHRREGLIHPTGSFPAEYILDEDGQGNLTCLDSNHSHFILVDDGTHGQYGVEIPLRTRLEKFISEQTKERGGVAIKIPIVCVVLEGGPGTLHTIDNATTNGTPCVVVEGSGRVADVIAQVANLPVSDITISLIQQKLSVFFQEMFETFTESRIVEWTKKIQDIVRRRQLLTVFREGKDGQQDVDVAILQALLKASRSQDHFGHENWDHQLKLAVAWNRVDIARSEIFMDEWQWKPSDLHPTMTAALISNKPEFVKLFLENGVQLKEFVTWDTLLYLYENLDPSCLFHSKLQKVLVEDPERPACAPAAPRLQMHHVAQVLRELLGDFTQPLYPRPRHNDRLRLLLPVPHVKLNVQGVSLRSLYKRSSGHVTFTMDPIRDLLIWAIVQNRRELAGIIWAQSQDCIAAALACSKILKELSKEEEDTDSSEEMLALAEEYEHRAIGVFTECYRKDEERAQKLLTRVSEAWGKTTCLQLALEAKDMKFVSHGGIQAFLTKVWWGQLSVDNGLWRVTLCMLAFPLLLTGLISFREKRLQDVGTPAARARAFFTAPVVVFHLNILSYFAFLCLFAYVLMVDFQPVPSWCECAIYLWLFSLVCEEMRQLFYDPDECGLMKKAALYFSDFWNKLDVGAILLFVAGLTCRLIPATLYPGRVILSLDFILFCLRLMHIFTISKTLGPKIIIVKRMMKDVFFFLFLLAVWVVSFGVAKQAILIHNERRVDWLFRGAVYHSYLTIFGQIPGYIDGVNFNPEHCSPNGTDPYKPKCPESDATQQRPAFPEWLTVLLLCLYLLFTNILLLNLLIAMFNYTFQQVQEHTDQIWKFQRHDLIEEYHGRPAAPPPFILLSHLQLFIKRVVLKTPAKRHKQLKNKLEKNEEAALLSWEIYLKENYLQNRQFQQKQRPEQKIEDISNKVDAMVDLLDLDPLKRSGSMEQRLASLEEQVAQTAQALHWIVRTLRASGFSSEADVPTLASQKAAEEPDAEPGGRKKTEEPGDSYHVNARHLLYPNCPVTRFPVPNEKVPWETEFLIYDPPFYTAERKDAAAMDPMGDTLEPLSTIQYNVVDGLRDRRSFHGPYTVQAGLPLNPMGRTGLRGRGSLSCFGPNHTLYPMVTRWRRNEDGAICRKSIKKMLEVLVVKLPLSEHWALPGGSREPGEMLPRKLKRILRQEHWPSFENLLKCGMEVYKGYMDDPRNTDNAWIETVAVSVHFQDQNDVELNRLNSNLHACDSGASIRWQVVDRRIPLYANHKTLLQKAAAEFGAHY
- protocol.details: whole-cell patch clamp, current inhibition
- Format: cell-based
pIC50: −log10 of the molar value.
Item-by-item account of pIC50
recorded.endpoint: pIC50

>>> result("COC1O[C@H](COP(=O)(O)CP(=O)(O)OC[C@H]2O[C@@H](n3cnc4c(N)ncnc43)[C@H](OC)[C@@H]2O)[C@H]2OC(C)(C)O[C@@H]12 (stereo partly drawn) [compound 13]")
"< 4.00"
>>> result("CO[C@@H]1[C@H](O)[C@@H](COP(=O)(O)CP(=O)(O)OC[C@H]2OC(O)[C@H](O)[C@@H]2O)O[C@H]1n1cnc2c(N)ncnc21 (stereo partly drawn) [compound 14]")
"< 4.00"
>>> result("COc1nc(N)c2ncn([C@@H]3O[C@H](COP(=O)(O)C(F)(F)P(=O)(O)OC[C@H]4OC(O)[C@H](O)[C@@H]4O)[C@@H](O)[C@H]3O)c2n1 (stereo partly drawn) [10j]")
"< 4.00"
